# test.target: TS (Mus musculus)
# Construct: endogenous in cells
# Sequence (P07607 whole entry): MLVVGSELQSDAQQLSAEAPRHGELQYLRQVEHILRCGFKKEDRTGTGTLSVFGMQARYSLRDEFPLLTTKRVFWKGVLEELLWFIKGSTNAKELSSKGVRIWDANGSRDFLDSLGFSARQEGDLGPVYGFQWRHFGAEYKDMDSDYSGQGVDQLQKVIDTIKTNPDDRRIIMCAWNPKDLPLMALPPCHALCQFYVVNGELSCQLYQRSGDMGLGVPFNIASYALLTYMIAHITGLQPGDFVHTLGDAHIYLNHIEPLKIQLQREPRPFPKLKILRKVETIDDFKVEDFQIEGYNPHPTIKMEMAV
# assay.text: Inhibition of TS purified >2,000 fold from L1210 cells by affinity chromatography
# Format: biochemical
# details: relative to CB 3717 control; higher = weaker
assay.readout: Relative potency ([drawing 17], I50 relative to CB 3717)

molecule	endpoint.result
Nc1nc2ccc(CN(CCBr)c3ccc(C(=O)N[C@@H](CCC(=O)O)C(=O)O)cc3)cc2c(=O)[nH]1	23

P. Nc1nc(O)c2cc(CN(CC(=O)c3ccccc3)c3ccc(C(=O)N[C@@H](CCC(=O)O)C(=O)O)cc3)ccc2n1
Q. Nc1nc2ccc(CN(CC(=O)O)c3ccc(C(=O)N[C@@H](CCC(=O)O)C(=O)O)cc3)cc2c(=O)[nH]1
R. N#CCN(Cc1ccc2nc(N)[nH]c(=O)c2c1)c1ccc(C(=O)N[C@@H](CCC(=O)O)C(=O)O)cc1
S. Nc1nc2ccc(CN(CC3CO3)c3ccc(C(=O)N[C@@H](CCC(=O)O)C(=O)O)cc3)cc2c(=O)[nH]1 (stereo partly shown)
Falling order of Relative potency ([drawing 17], I50 relative to CB 3717), please. Give the labels in the order specified.
Q, P, R, S
(Q: 100, P: 40, R: 15.6, S: 7.6)

The measured values listed here are drawn from patent US4447608A.
